Reference source: patent US20250333418A1

- System: human CB1 receptor (Homo sapiens, UniProt P21554)
- Construct: expressed in transfected cells; host or cells: HEK293
- Sequence (P21554 whole entry): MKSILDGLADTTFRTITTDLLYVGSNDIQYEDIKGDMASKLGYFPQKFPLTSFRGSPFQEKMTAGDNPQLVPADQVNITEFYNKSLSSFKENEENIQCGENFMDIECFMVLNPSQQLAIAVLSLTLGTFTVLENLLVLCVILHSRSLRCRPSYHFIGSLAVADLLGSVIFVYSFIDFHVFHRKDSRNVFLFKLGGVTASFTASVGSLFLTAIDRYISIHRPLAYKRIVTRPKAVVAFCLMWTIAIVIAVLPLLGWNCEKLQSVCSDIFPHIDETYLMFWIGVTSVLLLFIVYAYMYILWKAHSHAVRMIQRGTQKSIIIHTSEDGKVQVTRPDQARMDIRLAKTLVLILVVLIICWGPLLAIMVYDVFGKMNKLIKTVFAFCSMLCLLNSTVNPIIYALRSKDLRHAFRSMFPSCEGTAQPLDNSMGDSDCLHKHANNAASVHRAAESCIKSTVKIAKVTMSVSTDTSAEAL
- Protocol Text: bioSensAll β-arrestin2 plasma membrane translocation (+GRK2) BRET biosensor assay in HEK293 cells transfected with hCB1; test compound added before EC75-80 of agonist CP55,940 (100 nM)
- Assay type: cell-based
- Settings: βArrestin2 (+GRK2) BRET biosensor, vs CP55,940 100 nM (EC75-80), read-out: CB1 wt βarr2 IC50
Measurement Label: pIC50
On this scale, pIC50 is minus log10 of a concentration expressed in M (mol/L).

Here are 6 molecules together with their reported answers.
[[record]]
smiles_text = "CN(CCO)c1nc(N2CCC(C)(C(N)=O)CC2)c2nc(-c3ccccc3)n(-c3ccc(Cl)cc3)c2n1"
test_value = 8.23

[[record]]
smiles_text = "CCOC1(C(N)=O)CCN(c2nc(N3CCC[C@H]3CO)nc3c2nc(-c2ccc(C#N)nc2)n3-c2ccc(Cl)cc2)CC1"
test_value = 8.74

[[record]]
smiles_text = "COCCN(C)c1nc(N2CCC(C)(C(N)=O)CC2)c2nc(-c3ccccc3Cl)n(-c3ccc(Cl)cc3)c2n1"
test_value = 8.62

[[record]]
smiles_text = "Cc1nc(N2CCC(C)(C(N)=O)CC2)c2nc(-c3ccccc3Cl)n(-c3ccc(Cl)cc3)c2n1"
test_value = 7.39

[[record]]
smiles_text = "CC(C)(O)CNc1nc(N2CCC(C)(C(N)=O)CC2)c2nc(-c3ccc(C#N)nc3)n(-c3ccc(Cl)cc3)c2n1"
test_value = 7.27

[[record]]
smiles_text = "CN(CC(C)(C)O)c1nc(-c2ccc(C(F)(F)F)nc2)c2nc(-c3ccccc3Cl)n(-c3ccc(Cl)cc3)c2n1"
test_value = 7.92


Consider the molecule shown here: `CC(C)N1CCN(c2nc(OCC(C)(C)O)nc3c2nc(-c2ccccc2Cl)n3-c2ccc(Cl)cc2)CC1` What is its recorded pIC50? 8.25

Entry to check: `CN(CC(C)(C)O)c1nc(N2CC(C(N)=O)C2)c2nc(-c3ccccc3Cl)n(-c3ccc(Cl)cc3)c2n1` 7.40

// query: `FC(F)(F)C1CCN(c2nc(-c3cc[nH]n3)nc3c2nc(-c2ccccc2Cl)n3-c2ccc(Cl)cc2)CC1` 7.79

Another molecule to check: `CN(CCO)c1nc(N2CCOCC2)c2nc(-c3ccccc3Cl)n(-c3ccc(Cl)cc3)c2n1` 9.11

----------
- System: human CB1 receptor (Homo sapiens, UniProt P21554)
- Construct: expressed in transfected cells; host or cells: HEK293
- Protocol Text: bioSensAll GAPL-Gi2 BRET biosensor assay in HEK293 cells transfected with hCB1; test compound added before EC75-80 of agonist CP55,940 (0.1 nM)
- Type: cell-based
- Settings: vs CP55,940 0.1 nM (EC75-80), read-out: CB1 wt Gi2 IC50
Class membership depends on IC50 alone; the intervals are low interval: < 0.8 nM; middle interval: ≥ 0.8 nM and < 3 nM; high interval: ≥ 3 nM

Worked cases, answers included:
[[record]]
compound = "CC(C)(O)CNc1nc(N2CCC(C)(C(N)=O)CC2)c2nc(-c3ccccc3Cl)n(-c3ccc(Cl)cc3)c2n1 [Compound 85]"
assigned_class = "low interval"

[[record]]
compound = "COCCOc1nc(N2CCC(C)(C(N)=O)CC2)c2nc(-c3ccccc3Cl)n(-c3ccc(Cl)cc3)c2n1 [Compound 10]"
assigned_class = "middle interval"

[[record]]
compound = "CCNC1(C(N)=O)CCN(c2nc(C#N)nc3c2nc(-c2ccccc2Cl)n3-c2ccc(Cl)cc2)CC1 [Compound 146]"
assigned_class = "low interval"

[[record]]
compound = "CN(C)c1ccc(-c2nc3c(N4CCC(C)(C(N)=O)CC4)nc(OCC(C)(C)O)nc3n2-c2ccc(Cl)cc2)cn1 [Compound 116]"
assigned_class = "high interval"

[[record]]
compound = "COCCN(C)c1nc(N2CCC(C)(C(N)=O)CC2)c2nc(-c3ccccc3Cl)n(-c3ccc(Cl)cc3)c2n1 [Compound 42]"
assigned_class = "low interval"

[[record]]
compound = "CC(C)(O)COc1nc(N2CCC(C)(C(N)=O)CC2)c2nc(-c3ccncc3Cl)n(-c3ccc(Cl)cc3)c2n1 [Compound 121]"
assigned_class = "middle interval"


Hi, small favor: classify CC1(C(N)=O)CCN(c2nc(-c3cnc[nH]3)nc3c2nc(-c2ccccc2Cl)n3-c2ccc(Cl)cc2)CC1 [Compound 45] by its IC50 when you get a moment. high interval

Next up: CN(CCO)c1nc(N2CC(C)(O)C2)c2nc(-c3ccccc3Cl)n(-c3ccc(Cl)cc3)c2n1 [Compound 74] low interval

What would you report for CN1C[C@H](F)C[C@H]1COc1nc(N2CCC(C)(C(N)=O)CC2)c2nc(-c3ccccc3Cl)n(-c3ccc(Cl)cc3)c2n1 [Compound 232] ? middle interval

Next up: CC1(C(N)=O)CCN(c2nc(OCCO)nc3c2nc(-c2ccccc2Cl)n3-c2ccc(Cl)cc2)CC1 [Compound 78] middle interval

What about this compound? OC[C@H]1CCCN1c1nc(N2CCC(C(F)(F)F)CC2)c2nc(-c3ccccc3Cl)n(-c3ccc(Cl)cc3)c2n1 [Compound 29] high interval

And what about the compound CN(CCO)c1nc(NC2CCOCC2)c2nc(-c3ccccc3Cl)n(-c3ccc(Cl)cc3)c2n1 [Compound 178] ? low interval

Now consider CN1C[C@H](Oc2nc(N3CCC(C)(C(N)=O)CC3)c3nc(-c4ccccc4Cl)n(-c4ccc(Cl)cc4)c3n2)C[C@H]1CO [Compound 236] and answer again. middle interval

Same again, this time with O=S1(=O)CCC(Nc2nc(-n3ccnc3)nc3c2nc(-c2ccccc2Cl)n3-c2ccc(Cl)cc2)CC1 [Compound 164] middle interval

Next compound: CCOC(=O)c1cn(-c2nc(N3CCC(C)(C(N)=O)CC3)c3nc(-c4ccccc4Cl)n(-c4ccc(Cl)cc4)c3n2)cn1 [Compound 69] high interval

----------
Readings of IC50 for the listed compounds
- System: human CB1 receptor (Homo sapiens, UniProt P21554)
- Construct: expressed in transfected cells; host or cells: HEK293
- Protocol Text: bioSensAll GAPL-Gi2 BRET biosensor assay in HEK293 cells transfected with hCB1; test compound added before EC75-80 of agonist CP55,940 (0.1 nM)
- Assay type: cell-based
- Settings: vs CP55,940 0.1 nM (EC75-80), read-out: CB1 wt Gi2 IC50
Give the figure together with its unit, number first.

Examples with their reported IC50 follow.
[[record]]
compound = "C[C@H](CO)Oc1nc(N2CCC(C)(C(N)=O)CC2)c2nc(-c3ccccc3Cl)n(-c3ccc(Cl)cc3)c2n1"
test_value = "0.896 nM"

[[record]]
compound = "C[C@@H](O)CN(C)c1nc(N2CCC(C)(C(N)=O)CC2)c2nc(-c3ccccc3Cl)n(-c3ccc(Cl)cc3)c2n1"
test_value = "0.427 nM"

[[record]]
compound = "CN(CCO)c1nc(NC2CN(C(=O)C(F)(F)F)C2)c2nc(-c3ccccc3Cl)n(-c3ccc(Cl)cc3)c2n1"
test_value = "0.244 nM"

[[record]]
compound = "CC1(C(N)=O)CCN(c2nc(-n3ccnc3CO)nc3c2nc(-c2ccccc2Cl)n3-c2ccc(Cl)cc2)CC1"
test_value = "1.37 nM"

[[record]]
compound = "CC(O)COc1nc(N2CCC(C)(C(N)=O)CC2)c2nc(-c3ccccc3Cl)n(-c3ccc(Cl)cc3)c2n1 (single isomer, unassigned)"
test_value = "0.922 nM"


Recorded IC50 for `CN(CC(C)(C)O)c1nc(-c2ccc(C(F)(F)F)nc2)c2nc(-c3ccccc3Cl)n(-c3ccc(Cl)cc3)c2n1` with human CB1 receptor (Homo sapiens, UniProt P21554), please? 3.23 nM

Another compound: `CN(CCO)c1nc(N2CCC(C)(O)CC2)c2nc(-c3ccccc3Cl)n(-c3ccc(Cl)cc3)c2n1` 0.181 nM

Item: CC(CO)Oc1nc(N2CCC(C(F)(F)F)CC2)c2nc(-c3ccccc3Cl)n(-c3ccc(Cl)cc3)c2n1 (single isomer, unassigned) 0.707 nM

----------
- System: human CB1 receptor (Homo sapiens, UniProt P21554)
- Construct: expressed in transfected cells; host or cells: HEK293
- Protocol Text: bioSensAll β-arrestin2 plasma membrane translocation (+GRK2) BRET biosensor assay in HEK293 cells transfected with hCB1; test compound added before EC75-80 of agonist CP55,940 (100 nM)
- Assay type: cell-based
- Settings: βArrestin2 (+GRK2) BRET biosensor, vs CP55,940 100 nM (EC75-80), read-out: CB1 wt βarr2 IC50
- Experimental: Using polyethylenimine (PEI) transfection agent, HEK293 cells were transfected in suspension with the human CB1 receptor and one of the following bioSensAll® assays: GAPL-Gi2, or β-arrestin plasma membrane (PM) translocation biosensor (+GRK2). Cells were directly seeded in 96-well plates immediately following transfection. Cells were incubated with coelenterazine (luciferase substrate) and different test compounds prior to the measurement of BRET signals. […]
Measurement Label: log10(IC50) (log10 of the value in nM)
Each number you see is log10 of IC50, and the unit inside the log is nM.

So what does the record say about log10(IC50) for `CC(C)(O)COc1nc(N2CC(C)(O)C2)c2nc(-c3ccc(C#N)nc3)n(-c3ccc(Cl)cc3)c2n1` ? 2.02

Now the compound `CCOC1(C(N)=O)CN(c2nc(OCC(C)(C)O)nc3c2nc(-c2ccc(C#N)nc2)n3-c2ccc(Cl)cc2)C1` 1.77
